- systemName: phospho p-38 alpha kinase (Homo sapiens, UniProt Q16539)
- Construct: purchased Panvera
- Sequence (Q16539 whole entry): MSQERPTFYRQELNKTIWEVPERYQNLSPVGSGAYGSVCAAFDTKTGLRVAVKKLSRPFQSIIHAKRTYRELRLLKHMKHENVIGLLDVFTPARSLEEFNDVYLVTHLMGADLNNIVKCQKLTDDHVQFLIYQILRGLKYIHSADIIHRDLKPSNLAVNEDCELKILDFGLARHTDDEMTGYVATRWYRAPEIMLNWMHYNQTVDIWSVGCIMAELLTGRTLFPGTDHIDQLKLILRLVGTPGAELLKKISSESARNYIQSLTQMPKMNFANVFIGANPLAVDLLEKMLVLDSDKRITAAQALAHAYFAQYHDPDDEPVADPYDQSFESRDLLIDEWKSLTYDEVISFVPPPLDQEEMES
- methodSummary: P-38 alpha kinase assay (spectrophotometric, pyruvate kinase/lactate dehydrogenase coupled)
- Format: biochemical
- conditionDescription: Table 3; rates from […] to 2 h time frame
assayEndpoint: IC50 (nM)
Supply the numeric figure in nM, leaving out any unit text.

* COc1cccc(-n2nc(-c3ccccc3)cc2NC(=O)Nc2cccc(Cl)c2Cl)c1 | 14
* COc1cccc(-n2nc(C(F)(F)F)cc2NC(=O)Nc2cccc3ccccc23)c1 | 1000
* CN(C)CCc1cccc(-n2nc(C(C)(C)C)cc2NC(=O)Nc2ccc(Cl)cc2)c1 | 1460

Inquiry: // query IC50 value for entry COc1cccc(-n2nc(C(C)(C)C)cc2NC(=O)Nc2ccc3c(c2)OCO3)c1
Reply text: 250

Inquiry: Also need O=C(Nc1ccc(Cl)cc1)Nc1cc(-c2ccccc2)nn1-c1ccc(CO)cc1 , thanks.
Reply text: 1900

Inquiry: Could you do the same for CC(C)(C)c1cc(NC(=O)Nc2cccc(F)c2F)n(-c2ccc(CO)cc2)n1 , please?
Reply text: 75

Inquiry: Then what about the compound CC(Cc1cccc(-n2nc(C(C)(C)C)cc2NC(=O)Nc2cccc(Cl)c2Cl)c1)C(=O)O (centres unmarked) ?
Reply text: 13

Inquiry: Next: CCOC(=O)C(C)Cc1ccc(-n2nc(C(C)(C)C)cc2NC(=O)Nc2cccc3ccccc23)cc1 (centres unmarked)
Reply text: 819

###

- systemName: phospho p-38 alpha kinase (Homo sapiens, UniProt Q16539)
- Construct: purchased Panvera
- methodSummary: P-38 alpha kinase assay (spectrophotometric, pyruvate kinase/lactate dehydrogenase coupled)
- Type: biochemical
- conditionDescription: Table 3; rates from […] to 2 h time frame
pIC50: −log10 of the molar value.
I would appreciate it if you labelled entries 1 when pIC50 is 7 or higher, otherwise 0.

Inquiry: Entry CN(C)C(=O)NCc1cccc(-n2nc(C(C)(C)C)cc2NC(=O)Nc2ccc(Cl)cc2)c1 [Example 491] : is its pIC50 no less than 7?
Reply text: 0

Inquiry: And then CC(C)(C)c1cc(NC(=O)Nc2ccc(Cl)cc2)n(-c2cccc(CN3C(=O)CCC3=O)c2)n1 [Example 320] , what is it?
Reply text: 0

Inquiry: Item: CC(C)(C)c1cc(NC(=O)Nc2cccc3ccccc23)n(-c2ccc(CO)cc2)n1 [Example 461]
Reply text: 1

Inquiry: Please do the same for CC(C)(C)c1cc(NC(=O)Nc2ccc(Cl)cc2)n(-c2cccc(CN3C(=O)C(=O)NS3(=O)=O)c2)n1 [Example 483] as well.
Reply text: 0

Inquiry: Consider next the compound CC(O)c1ccc(-n2nc(C(C)(C)C)cc2NC(=O)Nc2cccc3ccccc23)cc1 (centres unmarked) [Example 463] in the same way.
Reply text: 1

Inquiry: For CC(C)(C)c1cc(NC(=O)Nc2cccc3ccccc23)n(-c2cccc(CNC(=O)N3CCOCC3)c2)n1 [Example 485] then?
Reply text: 1

Inquiry: Then CC(C)(C)c1cc(NC(=O)Nc2cccc(Cl)c2Cl)n(-c2ccc(C(=O)O)cc2)n1 [Example 468] ?
Reply text: 1

Inquiry: Subsequent entry: COc1cccc(-n2nc(C(C)(C)C)cc2NC(=O)Nc2ccc([N+](=O)[O-])cc2)c1 [Example 321]
Reply text: 0

Inquiry: How about this compound: CC(C)(C)c1cc(NC(=O)Nc2cccc(Cl)c2Cl)n(-c2cccc(C(C)(C)O)c2)n1 [Example 476]
Reply text: 1

Inquiry: Quick one: CC(C)c1cc(NC(=O)Nc2ccc(Cl)cc2)n(-c2ccc(CO)cc2)n1 [Example 438]
Reply text: 0

Inquiry: And what about the compound Cn1[nH]c(=O)n(Cc2cccc(-n3nc(C(C)(C)C)cc3NC(=O)Nc3cccc(Cl)c3Cl)c2)c1=O [Example 511] ?
Reply text: 1

Inquiry: Next up: CCOC(=O)C(C)Cc1ccc(-n2nc(C(C)(C)C)cc2NC(=O)Nc2ccc(Cl)cc2)cc1 (centres unmarked) [Example 429]
Reply text: 0

Inquiry: Another compound to look at: CC(C)(C)c1cc(NC(=O)Nc2cccc(Cl)c2Cl)n(-c2ccc(CO)cc2)n1 [Example 466]
Reply text: 1

Inquiry: Please do the same for COc1cccc(-n2nc(C(C)(C)C)cc2NC(=O)Nc2cccc(Cl)c2)c1 [Example 311] as well.
Reply text: 0

Inquiry: And COc1cccc(-n2nc(C(C)(C)C)cc2NC(=O)Nc2cccc(F)c2F)c1 [Example 345] ?
Reply text: 0

This collection of values is drawn from patent US20070191336A1.
